All values here come from patent US9006450B2.

Listed here: items and their measured IC50.
- study-system: human ACC2 (Homo sapiens, UniProt O00763)
- Construct: made in house; host or cells: insect cells (baculoviral expression system)
- Sequence (O00763 129-2458 limits assumed): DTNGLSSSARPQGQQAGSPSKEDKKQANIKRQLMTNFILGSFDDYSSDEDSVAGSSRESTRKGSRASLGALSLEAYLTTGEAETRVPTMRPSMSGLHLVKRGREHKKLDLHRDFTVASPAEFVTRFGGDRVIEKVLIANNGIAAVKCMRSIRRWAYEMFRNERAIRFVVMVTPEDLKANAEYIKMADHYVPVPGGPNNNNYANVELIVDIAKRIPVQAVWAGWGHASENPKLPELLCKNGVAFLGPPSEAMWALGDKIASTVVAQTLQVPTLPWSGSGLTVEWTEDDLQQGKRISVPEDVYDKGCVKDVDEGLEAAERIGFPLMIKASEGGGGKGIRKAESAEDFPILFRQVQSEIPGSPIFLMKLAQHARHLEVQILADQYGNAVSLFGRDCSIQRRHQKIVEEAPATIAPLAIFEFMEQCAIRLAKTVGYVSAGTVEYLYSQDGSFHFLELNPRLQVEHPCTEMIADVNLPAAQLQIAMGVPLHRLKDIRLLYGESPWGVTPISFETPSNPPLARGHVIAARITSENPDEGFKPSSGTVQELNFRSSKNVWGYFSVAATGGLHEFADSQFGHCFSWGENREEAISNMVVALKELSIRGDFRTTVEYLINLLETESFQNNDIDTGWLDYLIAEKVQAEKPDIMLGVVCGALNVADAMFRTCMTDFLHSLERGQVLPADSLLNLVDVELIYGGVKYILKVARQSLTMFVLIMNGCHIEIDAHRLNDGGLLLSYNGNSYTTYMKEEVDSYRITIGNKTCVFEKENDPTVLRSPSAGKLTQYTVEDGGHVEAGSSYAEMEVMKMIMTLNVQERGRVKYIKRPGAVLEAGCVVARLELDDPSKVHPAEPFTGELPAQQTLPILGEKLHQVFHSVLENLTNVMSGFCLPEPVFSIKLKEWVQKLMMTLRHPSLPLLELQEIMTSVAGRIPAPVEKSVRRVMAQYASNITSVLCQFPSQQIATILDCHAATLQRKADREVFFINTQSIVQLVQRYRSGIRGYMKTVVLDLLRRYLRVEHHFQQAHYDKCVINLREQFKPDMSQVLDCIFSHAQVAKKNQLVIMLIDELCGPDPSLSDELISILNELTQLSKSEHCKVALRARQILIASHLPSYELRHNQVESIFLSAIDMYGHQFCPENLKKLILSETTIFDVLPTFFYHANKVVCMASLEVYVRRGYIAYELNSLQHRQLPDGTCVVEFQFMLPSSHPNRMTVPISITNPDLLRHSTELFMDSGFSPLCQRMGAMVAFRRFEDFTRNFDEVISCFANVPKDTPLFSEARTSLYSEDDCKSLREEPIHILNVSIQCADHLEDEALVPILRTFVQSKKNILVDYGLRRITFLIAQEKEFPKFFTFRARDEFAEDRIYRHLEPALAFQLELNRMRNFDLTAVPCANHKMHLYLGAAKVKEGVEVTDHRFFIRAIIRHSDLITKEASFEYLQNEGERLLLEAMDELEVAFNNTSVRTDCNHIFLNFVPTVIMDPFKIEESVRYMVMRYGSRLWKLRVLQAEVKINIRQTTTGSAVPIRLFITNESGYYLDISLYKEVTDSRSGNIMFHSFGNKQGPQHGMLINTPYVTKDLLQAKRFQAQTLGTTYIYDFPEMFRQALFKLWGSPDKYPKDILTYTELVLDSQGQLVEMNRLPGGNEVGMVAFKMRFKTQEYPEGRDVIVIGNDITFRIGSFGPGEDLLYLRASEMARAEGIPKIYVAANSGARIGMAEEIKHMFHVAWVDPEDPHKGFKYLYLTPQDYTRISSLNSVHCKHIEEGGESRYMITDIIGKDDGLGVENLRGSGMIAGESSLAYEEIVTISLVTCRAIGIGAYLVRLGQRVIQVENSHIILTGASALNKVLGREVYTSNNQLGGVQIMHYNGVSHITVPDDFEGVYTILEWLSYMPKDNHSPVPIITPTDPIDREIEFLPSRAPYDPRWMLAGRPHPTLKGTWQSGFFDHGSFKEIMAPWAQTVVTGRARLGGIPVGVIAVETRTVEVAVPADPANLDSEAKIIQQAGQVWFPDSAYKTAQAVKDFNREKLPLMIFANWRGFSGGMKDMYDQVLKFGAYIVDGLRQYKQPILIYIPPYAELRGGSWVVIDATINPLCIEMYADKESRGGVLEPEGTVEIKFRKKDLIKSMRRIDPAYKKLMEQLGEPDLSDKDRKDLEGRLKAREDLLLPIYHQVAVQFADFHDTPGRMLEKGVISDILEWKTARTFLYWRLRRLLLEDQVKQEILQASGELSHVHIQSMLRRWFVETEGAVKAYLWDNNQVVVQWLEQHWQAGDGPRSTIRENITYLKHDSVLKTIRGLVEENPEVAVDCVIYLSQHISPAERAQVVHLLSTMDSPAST
- test-summary: ACC2 assay, spectrophotometric 384 well assay (NADH-linked, coupled lactate dehydrogenase/pyruvate kinase)
- Type: biochemical
- condition-set: ACC2 assay, hACC2 construct lacking 128 N-terminal amino acids, 25° C., 340 nm; read-out: IC50

compound	IC50 / nM
CCOc1ccc(N2CCC(c3ccc([C@H](C)NC(=O)C4CC(OC)C4)cc3)CC2)cc1 (stereo partly drawn)	760
COc1cccc(Oc2cc(N3CCC(c4ccc([C@H](C)NC(C)=O)cc4)CC3)ncn2)c1	690
C[C@H](NC(=O)C1CC1)c1ccc(C2CCN(c3ncc(-c4ccc(C#N)cc4)cn3)CC2)cc1	240
CC(=O)N[C@@H](C)c1ccc(C2CCN(c3noc4ccccc34)CC2)cc1	1100
COc1ccc(-c2cnc(N3CCC(c4ccc([C@H](C)NC(C)=O)cc4)CC3)nc2)cc1OC	1100
C=CCC(=O)N[C@@H](C)c1ccc(C2CCN(c3ccc(OCC)cc3)CC2)cc1	570

---

Measured IC50, listed per entry.
- study-system: human ACC2 (Homo sapiens, UniProt O00763)
- Construct: made in house; host or cells: insect cells (baculoviral expression system)
- test-summary: ACC2 assay, spectrophotometric 384 well assay (NADH-linked, coupled lactate dehydrogenase/pyruvate kinase)
- Assay type: biochemical
- condition-set: ACC2 assay, hACC2 construct lacking 128 N-terminal amino acids, 25° C., 340 nm; read-out: IC50

molecule	study-system	IC50 / nM
CC(=O)N[C@@H](C)c1ccc(C2CCN(c3ncc4c(C)n[nH]c4n3)CC2)cc1	human ACC2 (Homo sapiens, UniProt O00763)	1300
CCOc1ccc(N2CCC(c3ccc([C@H](C)NC(=O)CCOC)cc3)CC2)cc1	human ACC2 (Homo sapiens, UniProt O00763)	1100
CCC(NC(C)=O)c1ccc(C2CCN(c3ccc(OCC(C)C)cc3)CC2)cc1 (centres unmarked)	human ACC2 (Homo sapiens, UniProt O00763)	1200
CCC(CC)Oc1nccc(N2CCC(c3ccc([C@H](C)NC(C)=O)cc3)CC2)n1	human ACC2 (Homo sapiens, UniProt O00763)	890
C[C@H](NC(=O)C1CC1)c1ccc(C2CCN(c3ncnc(Cl)c3F)CC2)cc1	human ACC2 (Homo sapiens, UniProt O00763)	2900
CCOc1ccc(N2CCC(c3ccc([C@H](C)NC(=O)CO)cc3)CC2)cc1	human ACC2 (Homo sapiens, UniProt O00763)	3700
CC(=O)N[C@@H](C)c1ccc(C2CCN(c3cccc(OC4CCCCC4)c3)CC2)cc1	human ACC2 (Homo sapiens, UniProt O00763)	130
COc1cc(C)c(-c2cnc(N3CCC(c4ccc([C@H](C)NC(C)=O)cc4)CC3)nc2)cc1C	human ACC2 (Homo sapiens, UniProt O00763)	1600
CCCNc1ccc(N2CCC(c3ccc([C@H](C)NC(C)=O)cc3)CC2)cc1	human ACC2 (Homo sapiens, UniProt O00763)	1000
COC1CN(c2nccc(N3CCC(c4ccc([C@H](C)NC(C)=O)cc4)CC3)n2)C1	human ACC2 (Homo sapiens, UniProt O00763)	2300
COc1ccc2[nH]c(-c3cnc(N4CCC(c5ccc([C@H](C)NC(C)=O)cc5)CC4)nc3)cc2c1	human ACC2 (Homo sapiens, UniProt O00763)	410
CC(=O)N[C@@H](C)c1ccc(C2CCN(c3cc4c(cc3F)OCCCO4)CC2)cc1	human ACC2 (Homo sapiens, UniProt O00763)	1200
CCOc1ccc(N2CCC(c3ccc([C@H](C)NC(=O)Cc4cccnc4)cc3)CC2)cc1	human ACC2 (Homo sapiens, UniProt O00763)	860
CCOc1ncc(N2CCC(c3ccc([C@H](C)NC(C)=O)cc3)CC2)c(OC)n1	human ACC2 (Homo sapiens, UniProt O00763)	930
COc1cc(N2CCC(c3ccc([C@H](C)NC(C)=O)cc3)CC2)ccc1OCC1CCC1	human ACC2 (Homo sapiens, UniProt O00763)	430
CC(=O)NC(C)Cc1ccc(C2CCN(c3ccc(OCC(C)C)cc3)CC2)cc1 (centres unmarked)	human ACC2 (Homo sapiens, UniProt O00763)	1600
CC(=O)N[C@@H](C)c1ccc(C2CCN(c3ccc(OC4CCOCC4)cc3)CC2)cc1	human ACC2 (Homo sapiens, UniProt O00763)	580
CC(=O)N[C@@H](C)c1ccc(C2CCN(c3ccnc(N4CCC4)n3)CC2)cc1	human ACC2 (Homo sapiens, UniProt O00763)	660
CCCc1cnc(N2CCC(c3ccc([C@H](C)NC(C)=O)cc3)CC2)nc1	human ACC2 (Homo sapiens, UniProt O00763)	510
CCCOc1cnc(N2CCC(c3ccc([C@H](C)NC(C)=O)cc3)CC2)nc1	human ACC2 (Homo sapiens, UniProt O00763)	210
CC(=O)N[C@@H](C)c1ccc(C2CCN(c3ncc(C(C)(C)C)s3)CC2)cc1	human ACC2 (Homo sapiens, UniProt O00763)	470
CC(=O)N[C@@H](C)c1ccc(C2CCN(c3ncc(-c4ccc(OCC5CC5)nc4)cn3)CC2)cc1	human ACC2 (Homo sapiens, UniProt O00763)	1500
CC(=O)NC(C)Cc1ccc(C2CCN(c3ccnc(N(C)C4CCCC4)n3)CC2)cc1 (centres unmarked)	human ACC2 (Homo sapiens, UniProt O00763)	610

---

- study-system: human ACC2 (Homo sapiens)
- Construct: made in house; host or cells: insect cells (baculoviral expression system)
- test-summary: ACC2 assay, spectrophotometric 384 well assay (NADH-linked, coupled lactate dehydrogenase/pyruvate kinase)
- Format: biochemical
- condition-set: ACC2 assay, hACC2 construct lacking 128 N-terminal amino acids, 25° C., 340 nm; read-out: IC50
- Description: Spectrophotometric 384 Well Assay Malonyl CoA formation by acetyl CoA carboxylases is stoichometrically linked to the consumption of ATP. ACC2 activity is measured in a NADH-linked kinetic method measuring ADP generated during the ACC reaction using a coupled lactate dehydrogenase/pyruvate kinase reaction. For biological testing, a human ACC2 construct which lacks the 128 amino acids at the N-terminus for increased solubility (nt 385-6966 in Genbank entry AJ575592) is cloned. […]
recorded-metric: IC50

record-smiles	result
CC#CCOc1cccc(N2CCC(c3ccc([C@H](C)NC(C)=O)cc3)CC2)c1	200 nM
CC(=O)N[C@@H](C)c1ccc(C2CCN(c3cc(C(F)(F)F)ccn3)CC2)cc1	320 nM
COc1cccc(NC(=O)c2cnc(N3CCC(c4ccc([C@H](C)NC(C)=O)cc4)CC3)nc2)c1	420 nM
CC(=O)N[C@@H](C)c1ccc(C2CCN(c3ncc(-c4ccc(O)c(Cl)c4)cn3)CC2)cc1	200 nM
COCCNc1nccc(N2CCC(c3ccc([C@H](C)NC(C)=O)cc3)CC2)n1	17900 nM

---

Let's look at some molecules and their measured IC50.
- study-system: human ACC2 (Homo sapiens, UniProt O00763)
- Construct: made in house; host or cells: insect cells (baculoviral expression system)
- test-summary: ACC2 assay, spectrophotometric 384 well assay (NADH-linked, coupled lactate dehydrogenase/pyruvate kinase)
- Type: biochemical
- condition-set: ACC2 assay, hACC2 construct lacking 128 N-terminal amino acids, 25° C., 340 nm; read-out: IC50

molecule	IC50 / nM
CCCOc1ccc(N2CCC(c3ccc([C@H](C)NC(=O)C4CC4)cc3)CC2)c(OC)c1 [Example 1.116]	770
CCOc1ccc(N2CCC(c3ccc([C@H](C)NC(=O)Cn4ccnc4)cc3)CC2)cc1 [Example 6.28]	1300
C[C@H](NC(=O)C1CC1)c1ccc(C2CCN(c3nc(OC4CCC4)ncc3F)CC2)cc1 [Example 11.124]	880
CC(=O)N[C@@H](C)c1ccc(C2CCN(c3ncc(-c4ccc(C#N)c(F)c4)cn3)CC2)cc1 [Example 10.1]	50
CC(=O)N[C@@H](C)c1ccc(C2CCN(c3noc(-c4ccccc4)n3)CC2)cc1 [Example 26.1]	1900
CC(=O)N[C@@H](C)c1ccc(C2CCN(c3ncc(C(=O)Nc4ccc(CN(C)C)cc4)cn3)CC2)cc1 [Example 18.86]	11300
C[C@H](NC(=O)C1CC1)c1ccc(C2CCN(c3cnc(NCC4CC4)nc3)CC2)cc1 [Example 16.9]	6700
COc1ccc(N2CCC(c3ccc([C@H](C)NC(C)=O)cc3)CC2)cn1 [Example 1.53]	820
Cc1ccc(-c2cnc(N3CCC(c4ccc([C@H](C)NC(=O)N(C)C)cc4)CC3)nc2)cc1 [Example 10.112]	120
CC(=O)N[C@@H](C)c1ccc(C2CCN(c3cc(NCc4ccccc4)ncn3)CC2)cc1 [Example 11.55]	3700
CCOc1cccc(-c2ccc(N3CCC(c4ccc([C@H](C)NC(C)=O)cc4)CC3)nc2)c1 [Example 10.306]	310
CC(=O)N[C@@H](C)c1ccc(C2CCN(c3ccc(OCC4CCC4)c(C)c3)CC2)cc1 [Example 9.37]	690
CCCOc1ccc(N2CCC(c3ccc([C@H](C)NC(=O)C4CC4)cc3)CC2)cc1 [Example 1.23]	50
CC(=O)N[C@@H](C)c1ccc(C2CCN(c3ccc(C4(S(C)(=O)=O)CC4)cn3)CC2)cc1 [Example 5.8]	19200
CC(=O)NC(C)Cc1ccc(C2CCN(c3ccc(OCC4CC4)cc3)CC2)cc1 (centres unmarked) [Example 2.8]	960
CC(=O)N[C@@H](C)c1ccc(C2CCN(c3ccc(OCC4CC4)c(C#N)c3)CC2)cc1 [Example 9.40]	2900
COC(=O)c1cnc(N2CCC(c3ccc([C@H](C)NC(C)=O)cc3)CC2)cn1 [Example 5.53]	7700
